The reader will find reported SERT/DAT values listed item by item below.
molecular target: dopamine transporter (Macaca fascicularis); construct: The caudate-putamen was dissected from coronal slices and yielded 1.4±0.4 g tissue; Membranes were prepared as described previously; from tissue; host or cells: caudate-putamen membranes of cynomolgus or rhesus monkey brain; test: Dopamine transporter assay: inhibition of {3H}WIN 35,428 binding in caudate-putamen membranes; design: species or system rhesus or cynomolgus monkey; conditions: selectivity ratio IC50 SERT / IC50 DAT
Sequence (Q9GJT6 whole entry): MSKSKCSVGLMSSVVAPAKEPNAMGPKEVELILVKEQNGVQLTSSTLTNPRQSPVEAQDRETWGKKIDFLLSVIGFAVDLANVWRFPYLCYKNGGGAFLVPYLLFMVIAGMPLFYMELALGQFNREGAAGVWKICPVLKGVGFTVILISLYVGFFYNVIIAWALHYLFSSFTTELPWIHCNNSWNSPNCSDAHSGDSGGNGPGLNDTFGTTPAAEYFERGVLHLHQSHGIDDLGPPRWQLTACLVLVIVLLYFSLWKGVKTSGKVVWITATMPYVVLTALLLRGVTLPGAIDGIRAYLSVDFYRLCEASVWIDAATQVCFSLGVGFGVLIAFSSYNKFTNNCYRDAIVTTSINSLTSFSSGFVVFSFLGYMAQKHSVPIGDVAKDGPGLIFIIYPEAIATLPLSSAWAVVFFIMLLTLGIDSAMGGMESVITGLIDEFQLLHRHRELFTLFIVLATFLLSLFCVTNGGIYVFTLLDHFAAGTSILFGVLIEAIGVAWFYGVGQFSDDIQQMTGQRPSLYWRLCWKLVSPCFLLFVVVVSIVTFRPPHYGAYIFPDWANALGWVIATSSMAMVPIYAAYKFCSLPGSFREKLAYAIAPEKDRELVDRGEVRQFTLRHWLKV

| compound | SERT/DAT |
| --- | --- |
| COC(=O)[C@@H]1[C@H]2C[C@H](O)[C@@H](C[C@H]1c1ccc(F)cc1)N2C (relative stereo) [Compound 17c] | 8 |
| COC(=O)C1=C(c2ccccc2)C[C@@H]2CC[C@H]1N2C (relative stereo) [Compound 6d, reference compound] | 11 |
| COC(=O)[C@@H]1[C@H]2CC[C@@H](C[C@H]1c1ccc3ccccc3c1)N2C (relative stereo) [Compound 16b, reference compound] | 10 |
